# Tested on: MALME-3M melanoma
# Protocol Text: NCI-60 one-dose screen, 48 h (100 = growth as untreated, 0 = no growth, -100 = all killed)
# Details: 10 µM unless noted
This is part of a sample that, as a whole, favours compounds with a hit. Of some 83,000 tested, about 20% had one in any assay.
Quantity Measured: growth (%)
Report only the number, with the unit % understood.

Reference set (3 entries):
CCOc1c(C#N)c2c(N)ncnc2n1C1OC(CO)C(O)C1O (configuration not stated)
59.2
COc1ccc(C2=NN(C=O)C(c3ccc(OS(=O)(=O)c4ccc(C)cc4)c(OC)c3)C2)cc1 (configuration not stated)
45.9
CCOC(=O)c1ccc(NC(=O)NC2=NCCS2)cc1
8.27

### Prompt Recorded growth for C=CCn1c(C)nc2cc(Nc3nc(N4CCOCC4)nc4nc[nH]c34)ccc21 , please?
### Response 97.7

### Prompt Recorded growth for O=C1C=CC(=O)N1CO , please?
### Response 130

### Prompt Recorded growth for COc1c(-c2cc(-c3ccc(C)o3)[nH]c(=O)n2)c(O)cc2occc12 , please?
### Response 69.2

### Prompt Recorded growth for O=C1C2=C(C(=O)c3c(O)ccc(O)c31)N(c1ccc(N3CCOCC3)nc1)Cc1ccccc1O2 , please?
### Response -91.6

### Prompt Recorded growth for COCCOCCOCc1n(Cc2ccc3ccccc3n2)c2ccccc2[n+]1Cc1ccc2ccccc2c1 , please?
### Response -7.52

### Prompt Recorded growth for COc1cc2cc(C(=O)Nc3ccccc3)c(N)nc2cc1OC , please?
### Response -78.2

### Prompt Recorded growth for CC(C)N=C1CCCC1C(=S)SSC(=S)C1CCCC1=NC(C)C (configuration not stated) , please?
### Response 53.8

### Prompt Recorded growth for Cc1cc(C)c2c(n1)sc1c(Nc3ccc(Cl)cc3Cl)ncnc12 , please?
### Response 53.4

### Prompt Recorded growth for COc1cccc(/C=N/N=C(N)N)c1 , please?
### Response 111

### Prompt Recorded growth for CC(=O)c1nn(-c2ccccc2)/c(=N\N=C\c2coc3ccc(F)cc3c2=O)s1 , please?
### Response 102

### Prompt Recorded growth for COc1ccc(/C=C2\N=C(c3cccnc3)N(c3ccccc3)NC2=O)cc1 , please?
### Response 97.4

### Prompt Recorded growth for CC(=O)OC1Oc2ccccc2-c2oc3nc(=N)n(C)c-3cc21 (configuration not stated) , please?
### Response 119

### Prompt Recorded growth for c1ccc(C(Nc2ccccn2)(c2ccccc2)c2ccccc2)cc1 , please?
### Response 109

### Prompt Recorded growth for CCOC(CN1CCN(CC(C)C(=O)c2ccccc2)CC1)c1ccccc1 (configuration not stated) , please?
### Response 105

### Prompt Recorded growth for CCN(CC)CCCC(C)Nc1cnc(C(=O)Nc2cccc3ccc(OC)nc23)cn1 (configuration not stated) , please?
### Response -69.8

### Prompt Recorded growth for COc1ccc(/C(=C\c2cc(OC)c(OC)c(OC)c2)C(=O)N2CCNCC2)cc1 , please?
### Response 108

### Prompt Recorded growth for Cc1ccc2cc3c(NC(=O)c4cccnc4)nn(C)c3nc2c1 , please?
### Response 99.1

### Prompt Recorded growth for CC(C)CC(NC(=O)C(CCCN=C(N)N)NC(=O)OCc1ccccc1)C(=O)NC(CNC(=O)/C=C/c1ccccc1)C(C)C (configuration not stated) , please?
### Response 107

### Prompt Recorded growth for Cc1ccc(/C=C/C(=N/N=C(N)N)c2ccccc2)cc1 , please?
### Response 40

Source of measurements: PubChem BioAssay (NCI)
